src = ChEMBL document CHEMBL3808334

- System: U-251
- test.method.notes: Growth inhibition of human U251 cells incubated for 48 hrs by sulforhodamine B assay
- Assay type: functional
- condition.info: U-251, 48 h, read-out: GI50
Task for the reader: assign each of the following compounds its reported GI50.
Answers are plain numbers, in µM.

Observe how each entry below is paired with its result.
c1ccc(-c2nc(Nc3ccc(-c4nc5ccccc5[nH]4)cc3)nc(N3CCOCC3)n2)cc1 0.535
c1ccc2[nH]c(-c3ccc(Nc4nc(N5CCCCC5)nc(N5CCOCC5)n4)cc3)nc2c1 2.18
Fc1ccc(-c2nc(Nc3ccc(-c4nc5ccccc5[nH]4)cc3)nc(N3CCOCC3)n2)cc1 2.04

Let us examine a further case.
input: Return reported GI50; argument: Clc1ccc(-c2nc(Nc3ccc(-c4nc5ccccc5[nH]4)cc3)nc(N3CCOCC3)n2)cc1
output: 0.215
